B1: Far upstream element-binding protein 1, residues 98 to 169; numbered along this chain, Q96AE4 (parent)
chain: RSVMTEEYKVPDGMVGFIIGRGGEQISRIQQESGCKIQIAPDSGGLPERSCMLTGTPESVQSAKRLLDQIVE

Variants of: B1
assay-notes: abundance fitness (aPCA) (normalised: wild type 0, dead -1); higher = more abundant; growth selection in yeast, the domain comes from the species named
run-parameters: Homo sapiens
Recorded abundance fitness, one value per entry.
Lab note: jot the number down without any unit.

Some solved entries appear below for comparison.
• G23I = -0.17
• S27T = -0.003
• M4P = -0.245

So what does the record say about abundance fitness for M14D ?
-0.082

Also, S59I please.
-0.252

Also, S62P please.
-0.727
